# System: duck salad
# Measurement Notes: Test B flood test duck salad
# Type: in vivo, Heteranthera limosa
# Stated Conditions: Rate 62 g/ha, headed Pre-emergence (flood test species); scale 0 to 10 (0 no effect, 10 complete control)
Each record here notes measured Ducksalad plant response rating.

{"Compound": "Cc1ccccc1-n1c(=O)on(C(=O)N(c2ccc(S(C)(=O)=O)cc2)C(C)C)c1=O [Compound 203]", "Test System": "duck salad", "Ducksalad plant response rating": 0}
{"Compound": "COCCOCn1c(=O)on(C(=O)N(c2ccc(F)cc2)C(C)C)c1=O [Compound 220]", "Test System": "duck salad", "Ducksalad plant response rating": 0}
{"Compound": "Cc1ccccc1-n1c(=O)on(C(=O)N(c2cccc(F)c2)C(C)C)c1=O [Compound 269]", "Test System": "duck salad", "Ducksalad plant response rating": 0}
{"Compound": "Cc1ccccc1-n1c(=O)on(C(=O)N(c2ccc(-c3ccccc3)cc2)C(C)C)c1=O [Compound 187]", "Test System": "duck salad", "Ducksalad plant response rating": 0}
